Target: MT1 (ML1A) (h) (Homo sapiens)
Construct: host or cells: CHO cells
Sequence (P48039 whole entry): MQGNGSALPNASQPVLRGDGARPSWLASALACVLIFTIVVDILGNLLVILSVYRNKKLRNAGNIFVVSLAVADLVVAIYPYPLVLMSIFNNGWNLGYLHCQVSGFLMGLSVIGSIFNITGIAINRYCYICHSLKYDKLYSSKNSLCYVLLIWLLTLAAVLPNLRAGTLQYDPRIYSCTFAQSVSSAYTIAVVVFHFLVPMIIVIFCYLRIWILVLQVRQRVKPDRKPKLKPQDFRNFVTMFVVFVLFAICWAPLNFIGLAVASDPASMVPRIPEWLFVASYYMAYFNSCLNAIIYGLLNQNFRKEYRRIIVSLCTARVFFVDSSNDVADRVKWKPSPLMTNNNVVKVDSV
Test: Competition assay to measure binding affinity at MT1 receptor
Conditions: test ligand 10 μM; [125I]2-iodomelatonin 0.01 nM
ENDPOINT NAME: MT1, percent of control-specific binding (%)
Response body: numeric value in %, unit text excluded.

The molecule CC(Cc1ccc2c(c1)OCCO2)NCc1ccc2c(c1)OCCO2 (stereo not drawn) [A(XIII)] showed MT1, percent of control-specific binding equal to 12

The molecule O=C(Cc1cc2c(cc1Br)OCO2)NCCO [A(XIX)] showed MT1, percent of control-specific binding equal to 15

The molecule COc1ccc2[nH]cc(CCNC(C)=O)c2c1 [Melatonin, reference compound] showed MT1, percent of control-specific binding equal to 98

The molecule CC(Cc1ccc2c(c1)OCCO2)NCc1cc2c(cc1Br)OCCO2 (stereo not drawn) [A(XI)] showed MT1, percent of control-specific binding equal to 15

The molecule CCCOc1c(OC)cc(CCN)cc1OC [proscaline, reference compound] showed MT1, percent of control-specific binding equal to 3

The molecule COc1cc2c(cc1CNC(C)Cc1ccc3c(c1)OCCO3)OCO2 (stereo not drawn) [A(X)] showed MT1, percent of control-specific binding equal to 15

====

Molecular target: 5-HT2C (h) (Homo sapiens)
Construct: host or cells: HEK-293 cells
Sequence (P28335 33-458): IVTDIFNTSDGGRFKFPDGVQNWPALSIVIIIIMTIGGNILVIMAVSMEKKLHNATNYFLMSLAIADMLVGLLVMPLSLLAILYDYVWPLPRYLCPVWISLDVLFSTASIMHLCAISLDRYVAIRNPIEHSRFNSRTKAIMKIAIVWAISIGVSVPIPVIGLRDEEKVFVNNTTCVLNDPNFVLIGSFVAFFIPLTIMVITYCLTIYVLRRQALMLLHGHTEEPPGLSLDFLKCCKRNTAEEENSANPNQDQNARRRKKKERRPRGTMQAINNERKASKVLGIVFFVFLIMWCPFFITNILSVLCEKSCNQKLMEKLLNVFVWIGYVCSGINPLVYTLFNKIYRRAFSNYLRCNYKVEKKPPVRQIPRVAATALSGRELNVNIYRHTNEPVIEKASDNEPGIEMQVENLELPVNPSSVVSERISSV
Test: Competition assay to measure binding affinity at 5-HT2C receptor
Details: test ligand 10 μM; [125I](±)DOI 0.1 nM
Below: a set of entries, each annotated with reported HT2C, percent of control-specific binding.
Response body: numeric value in %, unit text excluded.

Some solved cases for reference:
COMPOUND	MEASUREMENT TARGET	MEASURED
c1cc(CCN2CCCC2)c2c(c1)OCO2 [A(XXIX)]	5-HT2C (h) (Homo sapiens)	87
O=C(Cc1cc2c(cc1Br)OCO2)NCCO [A(XIX)]	5-HT2C (h) (Homo sapiens)	22
CC(Cc1ccc2c(c1)OCCO2)NCc1ccccc1 (centres unmarked) [A(XXIII)]	5-HT2C (h) (Homo sapiens)	42

The compound CON(C)C(C)Cc1ccc2c(c1)OCO2 (centres unmarked) [A(XVIII)] showed HT2C, percent of control-specific binding equal to 3

The compound CC(Cc1ccc2c(c1)OCO2)N1CC(NC(=O)OC(C)(C)C)C1 (centres unmarked) [A(IV)] showed HT2C, percent of control-specific binding equal to 69

The compound O=C(Cc1ccc2c(c1)OC(F)(F)O2)N1CCCC1 [A(XXVII)] showed HT2C, percent of control-specific binding equal to 9

The compound N#CC(Cc1ccc2c(c1)OCO2)NC1CCC1 (centres unmarked) [A(XX)] showed HT2C, percent of control-specific binding equal to 41

The compound N#Cc1ccc2[nH]cc(CCCCN3CCN(c4ccc5oc(C(N)=O)cc5c4)CC3)c2c1 [Vilazodone, reference compound] showed HT2C, percent of control-specific binding equal to 92

The compound CC(Cc1ccc2c(c1)OCO2)N1CCOCC1 (centres unmarked) [A(III)] showed HT2C, percent of control-specific binding equal to 3

The compound CC(NC(C)(C)C)C(=O)c1cccc(Cl)c1 (centres unmarked) [Bupropion, reference compound] showed HT2C, percent of control-specific binding equal to 1

The compound CC(Cc1ccc2c(c1)OCO2)NN(C)C (centres unmarked) [A(VIII)] showed HT2C, percent of control-specific binding equal to 79

The compound CC(Cc1ccc2c(c1)OCCO2)NCc1ccc2c(c1)OCCO2 (centres unmarked) [A(XIII)] showed HT2C, percent of control-specific binding equal to 34

The compound CC(Cc1ccc2c(c1)OCCO2)N1CC(NC(=O)OC(C)(C)C)C1 (centres unmarked) [A(XVI)] showed HT2C, percent of control-specific binding equal to 79

The compound COc1cc2c(cc1CNC(C)Cc1ccc3c(c1)OCO3)OCO2 (centres unmarked) [A(V)] showed HT2C, percent of control-specific binding equal to 90

The compound CCCOc1c(OC)cc(CCN)cc1OC [proscaline, reference compound] showed HT2C, percent of control-specific binding equal to 97

The compound N[C@@H](Cc1c[nH]c2ccccc12)C(=O)O [tryptophan, reference compound] showed HT2C, percent of control-specific binding equal to 25

The compound COc1cc2c(cc1CC(=O)NCCO)OCO2 [A(XXII)] showed HT2C, percent of control-specific binding equal to 15

The compound COc1ccc2[nH]cc(CCNC(C)=O)c2c1 [Melatonin, reference compound] showed HT2C, percent of control-specific binding equal to 19

The compound O=c1n(CCCN2CCN(c3cccc(Cl)c3)CC2)nc2ccccn12 [Trazodone, reference compound] showed HT2C, percent of control-specific binding equal to 93

The compound COc1cc(CCN)cc(OC)c1OC [mescaline, 3,4,5 trimethoxyphenethylamine] showed HT2C, percent of control-specific binding equal to 95
